# system.tested: calf thymus topoisomerase I (Bos taurus, UniProt F1MN93)
# Construct: DNA topoisomerase I was purified from calf thymus gland as reported previously; from tissue; host or cells: calf thymus gland
# Sequence (F1MN93 1-767): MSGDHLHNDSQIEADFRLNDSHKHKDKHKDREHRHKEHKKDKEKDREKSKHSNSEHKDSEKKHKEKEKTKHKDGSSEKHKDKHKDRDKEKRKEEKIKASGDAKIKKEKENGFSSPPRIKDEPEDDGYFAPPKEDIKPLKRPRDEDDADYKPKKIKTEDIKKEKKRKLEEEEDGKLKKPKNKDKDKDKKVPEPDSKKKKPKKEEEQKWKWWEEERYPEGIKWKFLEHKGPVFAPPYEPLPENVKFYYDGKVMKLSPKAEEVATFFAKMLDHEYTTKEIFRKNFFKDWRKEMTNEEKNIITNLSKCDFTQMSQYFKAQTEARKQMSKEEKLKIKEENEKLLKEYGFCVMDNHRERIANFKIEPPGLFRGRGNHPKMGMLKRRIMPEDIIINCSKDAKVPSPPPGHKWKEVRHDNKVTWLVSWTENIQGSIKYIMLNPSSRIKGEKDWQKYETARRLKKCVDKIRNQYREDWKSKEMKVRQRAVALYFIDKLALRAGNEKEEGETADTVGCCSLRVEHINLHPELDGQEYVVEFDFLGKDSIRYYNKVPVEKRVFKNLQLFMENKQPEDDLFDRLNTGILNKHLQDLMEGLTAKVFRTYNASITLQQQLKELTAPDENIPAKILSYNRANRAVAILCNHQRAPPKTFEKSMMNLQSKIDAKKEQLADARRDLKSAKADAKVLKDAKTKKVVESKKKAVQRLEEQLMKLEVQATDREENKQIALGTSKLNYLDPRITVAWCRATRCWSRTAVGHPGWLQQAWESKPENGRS
# method.summary: Topoisomerase I-mediated DNA cleavage assay (calf thymus enzyme)
# Format: biochemical
# test.context: concentration relative to Hoechst 33342 (arbitrarily 1) producing the same cleavage on plasmid DNA; calf thymus topoisomerase I
experimental.endpoint: Topo I-mediated DNA cleavage (REC, Relative Effective Concentration)

Below: 2 compounds and their reported Topo I-mediated DNA cleavage (REC, Relative Effective Concentration).
- structure: "Clc1ccc(-c2ccc3[nH]c(-c4ccc5[nH]c(-c6ccc7[nH]cnc7c6)nc5c4)nc3c2)cc1"
  system.tested: "calf thymus topoisomerase I (Bos taurus, UniProt F1MN93)"
  result: 10
- structure: "c1ccc(-c2ccc3[nH]c(-c4ccc5[nH]c(-c6ccc7[nH]cnc7c6)nc5c4)nc3c2)nc1"
  system.tested: "calf thymus topoisomerase I (Bos taurus, UniProt F1MN93)"
  result: 3.3

Now for a further compound.
Note to self: Topo I-mediated DNA cleavage (REC, Relative Effective Concentration) recorded for Clc1ccc2[nH]c(-c3ccc4[nH]c(-c5ccc6[nH]cnc6c5)nc4c3)nc2c1 was 1
